- measured target: DC-SIGN CRD M270F (Homo sapiens, UniProt Q9NNX6, M270F)
- Construct: acids 253-404 of DC-SIGN; His-tag (N); made in house
- assay comment: 1H-15N HSQC NMR titration (CSP fitting)
- Format: binding
measurement name: pKd
# log scale: pKd equals minus log10 of the concentration in mol/L

q: Fill in: pKd of OC[C@H]1OC(O)[C@@H](O)[C@@H](O)[C@@H]1O (stereo partly shown) [mannose] is ___
a: 2.54

---

- measured target: DC-SIGN CRD wildtype (Homo sapiens)
- Construct: acids 253-404 of DC-SIGN; His-tag (N); made in house
- assay comment: 1H-15N HSQC NMR titration (CSP fitting)
- Assay type: binding
measurement name: Kd (mM)
Entry rule: numbers only, all in mM.

q: Fill in: Kd of OC[C@H]1OC(O)[C@@H](O)[C@@H](O)[C@@H]1O (stereo partly shown) is ___
a: 3.3

---

- measured target: DC-SIGN ECD wildtype (Homo sapiens)
- Construct: acids 64 -404 of DC -SIGN; made in house
- Sequence (Q9NNX6 64-404): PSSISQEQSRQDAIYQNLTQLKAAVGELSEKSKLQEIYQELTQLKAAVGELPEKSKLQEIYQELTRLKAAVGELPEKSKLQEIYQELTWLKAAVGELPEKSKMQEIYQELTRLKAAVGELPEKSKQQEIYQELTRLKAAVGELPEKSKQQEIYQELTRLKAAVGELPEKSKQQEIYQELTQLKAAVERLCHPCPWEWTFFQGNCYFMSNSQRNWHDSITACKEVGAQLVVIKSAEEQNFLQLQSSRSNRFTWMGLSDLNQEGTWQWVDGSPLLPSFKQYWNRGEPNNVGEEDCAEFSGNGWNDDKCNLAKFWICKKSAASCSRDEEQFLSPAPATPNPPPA
- assay comment: Plate-based horseradish peroxidase assay
- Assay type: binding
- condition summary: constant HRP concentration (1 µg mL-1); read-out: EC50 (mean ± SD), CaCl2 titration
measurement name: EC50 (µM)
Entry rule: numbers only, all in µM.

q: Fill in: EC50 of [Ca+2].[Cl-].[Cl-] is ___
a: 1000

---

- measured target: DC-SIGN ECD wildtype (Homo sapiens, UniProt Q9NNX6)
measurement name: pIC50
# log scale: pIC50 equals minus log10 of the concentration in mol/L

q: Fill in: pIC50 of OC[C@H]1OC(O)[C@@H](O)[C@@H](O)[C@@H]1O (stereo partly shown) [mannose] is ___
a: 2.64

---

- measured target: DC-SIGN CRD Q323A (Homo sapiens, UniProt Q9NNX6, Q323A)
- Construct: acids 253-404 of DC-SIGN; His-tag (N); made in house
- assay comment: 1H-15N HSQC NMR titration (CSP fitting)
- Assay type: binding
measurement name: Kd (mM)
Entry rule: numbers only, all in mM.

q: Fill in: Kd of OC[C@H]1OC(O)[C@@H](O)[C@@H](O)[C@@H]1O (stereo partly shown) [mannose] is ___
a: 3.5

---

- measured target: DC-SIGN CRD W364F (Homo sapiens, UniProt Q9NNX6, W364F)
- Construct: acids 253-404 of DC-SIGN; His-tag (N)
- assay comment: 1H-15N HSQC NMR titration (CSP fitting)
measurement name: Kd
Please format your answer as a value with the unit trailing.

q: Fill in: Kd of OC[C@H]1OC(O)[C@@H](O)[C@@H](O)[C@@H]1O (stereo partly shown) is ___
a: 5 mM

---

- measured target: DC-SIGN CRD F359L (Homo sapiens, UniProt Q9NNX6, F359L)
- Construct: acids 253-404 of DC-SIGN; His-tag (N)
- assay comment: 1H-15N HSQC NMR titration (CSP fitting)
measurement name: Kd (mM)
Entry rule: numbers only, all in mM.

q: Fill in: Kd of OC[C@H]1OC(O)[C@@H](O)[C@@H](O)[C@@H]1O (stereo partly shown) is ___
a: 8.2

---

- measured target: DC-SIGN ECD M270F (Homo sapiens, UniProt Q9NNX6, M270F)
- Construct: acids 64 -404 of DC -SIGN
- Sequence (Q9NNX6 64-404 M270F): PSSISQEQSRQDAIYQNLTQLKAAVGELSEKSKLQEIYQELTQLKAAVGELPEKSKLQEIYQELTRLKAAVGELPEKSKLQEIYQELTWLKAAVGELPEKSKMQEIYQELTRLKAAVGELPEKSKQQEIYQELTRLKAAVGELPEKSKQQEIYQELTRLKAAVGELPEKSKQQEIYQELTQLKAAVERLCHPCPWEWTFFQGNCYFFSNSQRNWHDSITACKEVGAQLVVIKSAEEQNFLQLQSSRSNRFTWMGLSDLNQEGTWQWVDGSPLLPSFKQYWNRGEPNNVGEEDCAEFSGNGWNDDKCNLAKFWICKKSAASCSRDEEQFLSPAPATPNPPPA
- assay comment: Plate-based horseradish peroxidase assay
- condition summary: 1 µg mL-1 HRP, 25 mM CaCl2; read-out: IC50, inhibition of HRP binding
measurement name: IC50 (mM)
Entry rule: numbers only, all in mM.

q: Fill in: IC50 of OC[C@H]1OC(O)[C@@H](O)[C@@H](O)[C@@H]1O (stereo partly shown) is ___
a: 3.1

---

- measured target: DC-SIGN ECD T314A (Homo sapiens, UniProt Q9NNX6, T314A)
- Construct: acids 64 -404 of DC -SIGN; made in house
- assay comment: 19F R2-filtered NMR reporter assay, CaCl2 titration
- condition summary: binding of 0.1 mM ManNAcF3 reporter, R2,obs, 25 μM ECD
measurement name: EC50 (µM)
Entry rule: numbers only, all in µM.

q: Notebook: pull reported EC50 for DC-SIGN ECD T314A (Homo sapiens, UniProt Q9NNX6, T314A), entry [Ca+2].[Cl-].[Cl-]
a: 600

---

- measured target: DC-SIGN CRD I376V (Homo sapiens, UniProt Q9NNX6, I376V)
- Construct: acids 253-404 of DC-SIGN; His-tag (N)
- assay comment: 1H-15N HSQC NMR titration (CSP fitting)
measurement name: pKd
# log scale: pKd equals minus log10 of the concentration in mol/L

q: Fill in: pKd of OC[C@H]1OC(O)[C@@H](O)[C@@H](O)[C@@H]1O (stereo partly shown) [mannose] is ___
a: 2.47

---

- measured target: DC-SIGN ECD M270F (Homo sapiens, UniProt Q9NNX6, M270F)
- Construct: acids 64 -404 of DC -SIGN; made in house
- assay comment: Plate-based horseradish peroxidase assay
- Type: binding
- condition summary: constant HRP concentration (1 µg mL-1); read-out: EC50 (mean ± SD), CaCl2 titration
measurement name: EC50

q: Notebook: pull reported EC50 for DC-SIGN ECD M270F (Homo sapiens, UniProt Q9NNX6, M270F), entry [Ca+2].[Cl-].[Cl-]
a: 700 µM
